Target: T1, human tissue factor pathway inhibitor (TFPI) (human, UniProt P10646 29-304, limits assumed)
T1 construct: bought; also called hTFPI; human TFPI
T1 sequence (looked up): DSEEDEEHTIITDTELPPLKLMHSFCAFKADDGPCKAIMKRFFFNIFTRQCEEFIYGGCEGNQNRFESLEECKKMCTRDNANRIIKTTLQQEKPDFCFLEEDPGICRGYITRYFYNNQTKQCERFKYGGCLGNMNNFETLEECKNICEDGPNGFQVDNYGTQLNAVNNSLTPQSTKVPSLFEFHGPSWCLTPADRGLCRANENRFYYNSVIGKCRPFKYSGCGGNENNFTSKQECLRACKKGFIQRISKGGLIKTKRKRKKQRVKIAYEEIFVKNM
Test: SPR, TFPI immobilized
measured.quantity: pKd
Remember the convention: pKd equals -log10 of concentration in molar.

Examples with answers:
{"columns": ["binder", "pKd"],
 "data": [
  ["B41.2 (4B7 HC N32D+D62R+Y112D/LC S32R+D33F+N35I) (Fab, V domains shown) VH: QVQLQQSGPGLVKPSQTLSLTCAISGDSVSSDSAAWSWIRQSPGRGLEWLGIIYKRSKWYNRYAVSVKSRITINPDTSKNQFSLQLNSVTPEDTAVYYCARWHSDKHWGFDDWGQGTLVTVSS VL: DIVMTQSPLSLPVTPGEPASISCRSSQSLVFRFGITYLNWYLQKPGQSPQLLIYKGSNRASGVPDRFSGSGSGTDFTLKISRVEAEDVGVYYCQQYDSYPLTFGQGTKVEIKR", 11.15],
  ["B2.0 (4B7 HC N32D+D62R+Y112D/LC S32R+D33F+N35I+D97T) (Fab, V domains shown) VH: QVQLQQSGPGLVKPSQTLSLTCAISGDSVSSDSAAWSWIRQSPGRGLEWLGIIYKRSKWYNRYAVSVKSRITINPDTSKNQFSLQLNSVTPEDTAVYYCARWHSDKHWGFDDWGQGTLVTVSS VL: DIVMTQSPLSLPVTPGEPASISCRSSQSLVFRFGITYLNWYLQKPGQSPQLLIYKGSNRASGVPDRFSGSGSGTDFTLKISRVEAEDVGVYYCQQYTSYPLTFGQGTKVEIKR", 11.29]
]}

// pKd lookup, key: gB9.7-IgG (4B7 HC N32D+G44S+K55Y+D62R+Y112D/LC S32R+N35I) (antibody, V domains shown, IgG format by its name) VH: QVQLQQSGPGLVKPSQTLSLTCAISGDSVSSDSAAWSWIRQSPSRGLEWLGIIYYRSKWYNRYAVSVKSRITINPDTSKNQFSLQLNSVTPEDTAVYYCARWHSDKHWGFDDWGQGTLVTVSS VL: DIVMTQSPLSLPVTPGEPASISCRSSQSLVFRDGITYLNWYLQKPGQSPQLLIYKGSNRASGVPDRFSGSGSGTDFTLKISRVEAEDVGVYYCQQYDSYPLTFGQGTKVEIKR 11.12

Source: patent USRE47150
